method_description: qHTS assay for MDR1-selective chemotherapeutics: Primary screen using the drug-selected MDR subline cells KB-V1; further: nearly all actives have a fitted effect of over 60% in size
conditions_used: KB-V1 MDR cells viability, CellTiter-Glo, 72 h; series mostly up to 46.1 µM
Hit rate of the full screen: of about 400,000 compounds, about 13,000 (3.2%) were called active. Not shown: some 18% with an inconclusive outcome. The call rests on the fitted dose curve; in most records, active means well fitted cell-killing curve with a large enough effect; inconclusive means small, poorly fitted or top-dose-only effect, or effect the other way; inactive means flat fitted curve, though single readings scatter. What follows is part of a selection rich in actives, with near analogues and random picks from the rest.
Could you please pick one outcome from this set? Y (active), N (inactive)

Asked: GET /call?item= "O=C(Nc1ccc2c(c1)[C@@H]1C[C@@H](CC(=O)N3CCCCC3)O[C@@H](CO)[C@@H]1O2)NC1CCCCC1" returns the recorded outcome of this test.
Given back: N

Asked: GET /call?item= "CCCCCCCCN1C(=O)[C@H](CC(=O)NCC23CC4CC(CC(C4)C2)C3)C[C@@]2(C(=O)OC)CCCCC=C12" returns the recorded outcome of this test.
Given back: N

Asked: GET /call?item= COc1cc(C2CC(=O)Oc3cc(OC)c(OC)c(OC)c32)cc(OC)c1OC (stereo not given) returns the recorded outcome of this test.
Given back: N

Asked: GET /call?item= "CCN(CC)C(=O)CN(c1cccc(OC)c1)S(=O)(=O)c1ccc(C)cc1" returns the recorded outcome of this test.
Given back: N

Asked: GET /call?item= "Cc1ccc(-c2nc(=N)sn2Cc2ccccc2)cc1" returns the recorded outcome of this test.
Given back: N

Asked: GET /call?item= "CCC1=Nc2cc(C(=O)NCCCN3CCOCC3)ccc2Sc2ccc(Br)cc21" returns the recorded outcome of this test.
Given back: N

Asked: GET /call?item= "O=c1[nH]c(CN2CCN(S(=O)(=O)c3ccc4c(c3)OCCO4)CC2)nc2sc3c(c12)CCCC3" returns the recorded outcome of this test.
Given back: N

Asked: GET /call?item= "Cc1nn2c(=O)cc(COC(=O)CNC(=O)c3ccc(F)cc3)nc2s1" returns the recorded outcome of this test.
Given back: N

Asked: GET /call?item= CCCCn1nnnc1C(c1cccc(OC)c1OC)N1CCN(C/C=C/c2ccccc2)CC1 (stereo not given) returns the recorded outcome of this test.
Given back: N

Asked: GET /call?item= "CCOC(=O)c1c(-c2ccc(OC)cc2)oc2ccc(OCc3ccc(C(=O)OC)cc3)cc12" returns the recorded outcome of this test.
Given back: N
